test system: 521955-158-R2-J5-PDC complex spheroid viability; assay: Anticancer human tumor 521955-158-R2-J5-PDC patient-derived pancreatic carcinoma cell line growth inhibition [GQUAD]; details: second compound 3.16 µM; first compound 10 µM; active = viability on the fitted dose curve at most 10% of control; inactive = the rest;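 also: spheroids exposed to agents for one week before reading; 100% = DMSO vehicle control viability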
Outcome codes: 1 = active, -1 = inactive

1) COc1ncnc(C2CC2)c1-c1ncc2cnn(Cc3ccc(-c4nc(C(F)(F)F)cn4C(C)C)cc3)c2n1 + Cc1cnc(CNC(=O)c2c(=O)c3ccc(N4CCCN(C)CC4)nc3n3c2sc2ccccc23)cn1 | -1
2) C=CC(=O)N1CCN(c2nc(=O)n(-c3c(C)ccnc3C(C)C)c3nc(-c4c(O)cccc4F)c(F)cc23)C(C)C1 (stereo unspecified) + CN(C)c1ccc(Nc2c3ccc(NC(=O)CCN4CCCC4)cc3nc3cc(NC(=O)CCN4CCCC4)ccc23)cc1 | -1
3) CC(C)(O)C1CCC(Nc2ccc3ncc(-c4cccc(C(F)(F)F)c4)n3n2)CC1 (stereo unspecified) + Cc1cnc(CNC(=O)c2c(=O)c3ccc(N4CCCN(C)CC4)nc3n3c2sc2ccccc23)cn1 | 1
4) O=c1[nH]cc(F)c(=O)[nH]1 + Cc1cnc(CNC(=O)c2c(=O)c3ccc(N4CCCN(C)CC4)nc3n3c2sc2ccccc23)cn1 | -1
5) COc1ccc([C@@H](O)c2cc(-c3ncnc4cc(N5CCOCC5)ccc34)c(F)cc2Cl)nn1 + CN(C)c1ccc(Nc2c3ccc(NC(=O)CCN4CCCC4)cc3nc3cc(NC(=O)CCN4CCCC4)ccc23)cc1 | -1
6) COc1cccc2c1C(=O)c1c(O)c3c(c(O)c1C2=O)CC(O)(C(=O)CO)CC3OC1CC(N)C(O)C(C)O1 (stereo unspecified) + Cc1[nH]c2ccc(F)cc2c1-c1nc2c3cccnc3c3ncccc3c2[nH]1 | 1
7) CCCS(=O)(=O)Nc1ccc(F)c(C(=O)c2c[nH]c3ncc(-c4ccc(Cl)cc4)cc23)c1F + Cc1cnc(CNC(=O)c2c(=O)c3ccc(N4CCCN(C)CC4)nc3n3c2sc2ccccc23)cn1 | -1
8) CC(C)(O)C1CCC(Nc2ccc3ncc(-c4cccc(C(F)(F)F)c4)n3n2)CC1 (stereo unspecified) + CN(C)c1ccc(Nc2c3ccc(NC(=O)CCN4CCCC4)cc3nc3cc(NC(=O)CCN4CCCC4)ccc23)cc1 | -1
9) COc1cccc2c1C(=O)c1c(O)c3c(c(O)c1C2=O)CC(O)(C(=O)CO)CC3OC1CC(N)C(O)C(C)O1 (stereo unspecified) + CN(C)c1ccc(Nc2c3ccc(NC(=O)CCN4CCCC4)cc3nc3cc(NC(=O)CCN4CCCC4)ccc23)cc1 | 1
10) O=c1[nH]cc(F)c(=O)[nH]1 + Cc1[nH]c2ccc(F)cc2c1-c1nc2c3cccnc3c3ncccc3c2[nH]1 | -1
11) CC(C)n1c(=O)n(C)c2cnc3cc(F)c(-c4ccc(OCCCN5CCCCC5)nc4)cc3c21 + Cc1cnc(CNC(=O)c2c(=O)c3ccc(N4CCCN(C)CC4)nc3n3c2sc2ccccc23)cn1 | -1
12) COc1ncnc(C2CC2)c1-c1ncc2cnn(Cc3ccc(-c4nc(C(F)(F)F)cn4C(C)C)cc3)c2n1 + CN(C)c1ccc(Nc2c3ccc(NC(=O)CCN4CCCC4)cc3nc3cc(NC(=O)CCN4CCCC4)ccc23)cc1 | -1
13) COc1ccc([C@@H](O)c2cc(-c3ncnc4cc(N5CCOCC5)ccc34)c(F)cc2Cl)nn1 + Cc1cnc(CNC(=O)c2c(=O)c3ccc(N4CCCN(C)CC4)nc3n3c2sc2ccccc23)cn1 | -1
14) CC(=O)O[C@H]1C(=O)[C@@]2(C)[C@H]([C@H](OC(=O)c3ccccc3)[C@]3(O)C[C@H](OC(=O)[C@H](O)[C@@H](NC(=O)c4ccccc4)c4ccccc4)C(C)=C1C3(C)C)[C@]1(OC(C)=O)CO[C@@H]1C[C@@H]2O + Cc1cnc(CNC(=O)c2c(=O)c3ccc(N4CCCN(C)CC4)nc3n3c2sc2ccccc23)cn1 | 1
15) O=C(NO)c1cnc(N2CCN(S(=O)(=O)c3ccc4ccccc4c3)CC2)nc1 + Cc1cnc(CNC(=O)c2c(=O)c3ccc(N4CCCN(C)CC4)nc3n3c2sc2ccccc23)cn1 | 1
16) COc1cc(C2c3cc4c(cc3C(OC3OC5COC(C)OC5C(O)C3O)C3COC(=O)C23)OCO4)cc(OC)c1O (stereo unspecified) + Cc1[nH]c2ccc(F)cc2c1-c1nc2c3cccnc3c3ncccc3c2[nH]1 | -1
17) CC1COCCN1c1cc(C2(O)CC3CCC(C2)O3)c2cnn(-c3ccn[nH]3)c2n1 (stereo unspecified) + Cc1cnc(CNC(=O)c2c(=O)c3ccc(N4CCCN(C)CC4)nc3n3c2sc2ccccc23)cn1 | 1
18) Nc1ccn(C2OC(CO)C(O)C2(F)F)c(=O)n1 (stereo unspecified) + Cc1cnc(CNC(=O)c2c(=O)c3ccc(N4CCCN(C)CC4)nc3n3c2sc2ccccc23)cn1 | 1
19) O=C(NO)c1cnc(N2CCN(S(=O)(=O)c3ccc4ccccc4c3)CC2)nc1 + Cc1[nH]c2ccc(F)cc2c1-c1nc2c3cccnc3c3ncccc3c2[nH]1 | 1
20) CC1COCCN1c1cc(-c2ccnn2C)c2ccnc(-c3ccn[nH]3)c2n1 (stereo unspecified) + Cc1cnc(CNC(=O)c2c(=O)c3ccc(N4CCCN(C)CC4)nc3n3c2sc2ccccc23)cn1 | 1
21) O=c1[nH]cc(F)c(=O)[nH]1 + CN(C)c1ccc(Nc2c3ccc(NC(=O)CCN4CCCC4)cc3nc3cc(NC(=O)CCN4CCCC4)ccc23)cc1 | -1
